B1: glmS ribozyme (parent)
chain: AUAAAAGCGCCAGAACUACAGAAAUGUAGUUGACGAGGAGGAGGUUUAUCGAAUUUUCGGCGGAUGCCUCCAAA

Variants of: B1
Experiment: self-cleavage kobs at 2500 uM GlcN6P; higher = faster cleavage; RNA array
Conditions: with glucosamine-6-phosphate
Variants at the floor of the assay were thinned out.
Entries annotated with measured self-cleavage kobs at 2500 uM GlcN6P
Field format: number, assumed s⁻¹, no unit text.

// below: answered variants
In [3]: df
Out[3]:
           variant_key                         quantity_kind  value_unit    result
0       G66A C67U C70U  self-cleavage kobs at 2500 uM GlcN6P         s⁻¹  0.000488
1  A14U U49G A53U U69G  self-cleavage kobs at 2500 uM GlcN6P         s⁻¹  7.58e-05
2            A48G U55A  self-cleavage kobs at 2500 uM GlcN6P         s⁻¹   7.8e-05
3       G41U U57G C70A  self-cleavage kobs at 2500 uM GlcN6P         s⁻¹  0.000107
4            A12U A64C  self-cleavage kobs at 2500 uM GlcN6P         s⁻¹  0.000264

Shift focus to the following entry.
The variant listed as A39G G66A shows self-cleavage kobs at 2500 uM GlcN6P equal to 0.0223
